- Test method notes: Pharmacokinetic analysis of CBN and metabolites in rat plasma and brain (LC-MS/MS)
- Type: in vivo
- Measurement conditions: rat plasma after CBN 10 mg/kg IP; analyte as labelled; read-out: Plasma t½ (converted)
Readout kind: half-life

molecule="CCCCCc1cc(O)c2c(c1)OC(C)(C)c1ccc(CO)cc1-2 [11-OH-CBN, 11-hydroxy-cannabinol]" readout_kind=half-life experimental_result="2.18 h"
molecule=CCCCCc1cc(O)c2c(c1)OC(C)(C)c1ccc(C)cc1-2 readout_kind=half-life experimental_result="1.93 h"

----------
- Test method notes: Pharmacokinetic analysis of CBN and metabolites in rat plasma and brain (LC-MS/MS)
- Assay type: in vivo
- Measurement conditions: rat plasma after CBN 10 mg/kg IP; analyte as labelled; n = 4
Property: Cmax; scope: individual molecules
Readout kind: Cmax (ng/mL)

molecule="CCCCCc1cc(O)c2c(c1)OC(C)(C)c1ccc(C(=O)O)cc1-2 [11-COOH-CBN, 11-carboxy-cannabinol]" readout_kind=Cmax experimental_result=169
molecule="CCCCCc1cc(O)c2c(c1)OC(C)(C)c1ccc(CO)cc1-2 [11-OH-CBN, 11-hydroxy-cannabinol]" readout_kind=Cmax experimental_result=170
molecule="CCCCCc1cc(O)c2c(c1)OC(C)(C)c1ccc(C)cc1-2 [CBN, cannabinol]" readout_kind=Cmax experimental_result=374
